- Tested on: hBM-MSCs
- procedure.text: adiponectin production assay during adipogenesis (ELISA)
- Type: cell-based
- details: Homo sapiens, IDX conditions, read-out: IC50 values, adiponectin secretion-promoting effects
Attribute: EC50
metric: EC50 (µM)

- COc1c(O)c2c3c(c1O)C(=O)[C@@]1(O)C(=C3C(C)=C(O)C2=O)O[C@@H](C)C1(C)C [Compound 1, ent-Peniciherqueinone]: 57.5
- COc1c(O)c2c3c(c1O)C(=O)[C@@]1(O)C(=C3C(C)=CC2=O)O[C@@H](C)C1(C)C [Compound 9, isoherqueinone]: 39.7

* * *

- Test system: HUVECs
- procedure.text: VEGF-induced tube formation assay (angiogenesis)
- Assay type: cell-based, human
- details: VEGF 50 ng/mL, 6 h, read-out: IC50, inhibition of tube formation
metric: IC50

- CC(=O)CC1(O)C(=O)C2=c3c(c(O)cc(C)c3=C3O[C@H](C)C(C)(C)[C@]3(O)C2=O)C1=O (stereo partly shown): > 40 µM

Hello, the source for this data is paper PMC6470642, in case you need it.
